# System: Danio rerio embryo/larva
# METHOD NOTES: max % larvae with blood pooling across tested concentrations; higher = more toxic; extreme values may be limits of the assay
# DETAILS: exposure: 6-8 hpf to 5 dpf, scored at 6 dpf
MEASUREMENT TYPE: max % larvae (%)
Your answer is read as %, so omit the unit and give the number.

stdin: Answer with the recorded max % larvae for the molecule listed here: O=C(O)C(F)(F)C(F)(F)C(F)(F)C(F)(F)C(F)(F)C(F)(F)C(F)(F)C(F)(F)C(F)(F)C(F)(F)F [Perfluoroundecanoic acid] (max tested concentration (log10 uM): 0.477121)
stdout: 8.33

stdin: Answer with the recorded max % larvae for the molecule listed here: CC(C)(C)C(=O)CC(=O)C(F)(F)C(F)(F)C(F)(F)F [(Heptafluorobutanoyl)pivaloylmethane] (max tested concentration (log10 uM): 2)
stdout: 20

stdin: Answer with the recorded max % larvae for the molecule listed here: O=C(O)C(F)(F)C(F)(F)F [Perfluoropropanoic acid] (max tested concentration (log10 uM): 2)
stdout: 0

stdin: Answer with the recorded max % larvae for the molecule listed here: OCC(F)(F)OC(F)(F)C(F)(F)OC(F)(F)CO [1H,1H,8H,8H-Perfluoro-3,6-dioxaoctane-1,8-diol] (max tested concentration (log10 uM): 2)
stdout: 0

stdin: Answer with the recorded max % larvae for the molecule listed here: FC(F)(I)C(F)(F)C(F)(F)C(F)(F)I [Perfluoro-1,4-diiodobutane] (max tested concentration (log10 uM): 2)
stdout: 20

stdin: Answer with the recorded max % larvae for the molecule listed here: NC(=O)C(F)(F)C(F)(F)C(F)(F)C(F)(F)C(N)=O [Octafluoroadipamide] (max tested concentration (log10 uM): 2)
stdout: 0

stdin: Answer with the recorded max % larvae for the molecule listed here: FC(F)(F)C(F)(F)C(F)(F)C(F)(F)CCI [1H,1H,2H,2H-Perfluorohexyl iodide] (max tested concentration (log10 uM): 2)
stdout: 0

stdin: Answer with the recorded max % larvae for the molecule listed here: OCC(F)(F)C(F)(F)C(F)(F)C(F)(F)C(F)(F)C(F)F [1H,1H,7H-Dodecafluoro-1-heptanol] (max tested concentration (log10 uM): 2)
stdout: 0

stdin: Answer with the recorded max % larvae for the molecule listed here: NC(=O)C(F)(F)C(F)(F)C(F)(F)C(F)(F)F [Nonafluoropentanamide] (max tested concentration (log10 uM): 2)
stdout: 0

stdin: Answer with the recorded max % larvae for the molecule listed here: FC(F)(F)C(F)(F)C(F)(F)C(F)(F)C(F)(F)C(F)(F)C(F)(F)C(F)(F)CCS [2-(Perfluorooctyl)ethanthiol] (max tested concentration (log10 uM): 1.60206)
stdout: 0

stdin: Answer with the recorded max % larvae for the molecule listed here: C=C(C)C(=O)OCC(F)(F)C(F)(F)C(F)(F)F [(Perfluoropropyl)methyl methacrylate] (max tested concentration (log10 uM): 2)
stdout: 0

---

Answer each item with its documented max % larvae unhatched across tested concentrations.
# System: Danio rerio embryo/larva
# METHOD NOTES: max % larvae unhatched across tested concentrations; max tested concentration (log10 uM): 2; higher = more toxic
# DETAILS: exposure: 6-8 hpf to 5 dpf, scored at 6 dpf
Your answer is read as %, so omit the unit and give the number.

stdin: Answer with the recorded max % larvae unhatched across tested concentrations for the compound listed here: O=S(=O)(O)C(F)(F)C(F)(F)C(F)(F)C(F)(F)F [Perfluorobutanesulfonic acid]
stdout: 0

stdin: Answer with the recorded max % larvae unhatched across tested concentrations for the compound listed here: O=C(O)C(F)(F)C(F)(F)C(F)(F)C(F)(F)C(F)(F)C(F)(F)C(F)(F)F [Sodium perfluorooctanoate]
stdout: 0

stdin: Answer with the recorded max % larvae unhatched across tested concentrations for the compound listed here: OCC(F)(F)C(F)(F)C(F)(F)C(F)(F)C(F)(F)C(F)(F)CO
stdout: 0

stdin: Answer with the recorded max % larvae unhatched across tested concentrations for the compound listed here: O=C(O)CCC(F)(F)C(F)(F)C(F)(F)F
stdout: 0

stdin: Answer with the recorded max % larvae unhatched across tested concentrations for the compound listed here: O=C(O)C(F)(F)C(F)(F)C(F)(F)C(F)(F)C(F)(F)F
stdout: 0

stdin: Answer with the recorded max % larvae unhatched across tested concentrations for the compound listed here: O=S(=O)(O)CCC(F)(F)C(F)(F)C(F)(F)C(F)(F)C(F)(F)C(F)(F)F
stdout: 0

stdin: Answer with the recorded max % larvae unhatched across tested concentrations for the compound listed here: FC(F)(I)C(F)(F)C(F)(F)C(F)(F)C(F)(F)C(F)(F)I
stdout: 0

---

Answer each item with its documented max % larvae.
# Tested on: Danio rerio embryo/larva
# METHOD NOTES: max % larvae with abnormal position across tested concentrations; higher = more toxic; extreme values may be limits of the assay
# DETAILS: exposure: 6-8 hpf to 5 dpf, scored at 6 dpf
// return the numeric value with its unit appended

stdin: Answer with the recorded max % larvae for the compound listed here: O=S(=O)(O)CCC(F)(F)C(F)(F)C(F)(F)C(F)(F)C(F)(F)C(F)(F)F [6:2 Fluorotelomer sulfonic acid] (max tested concentration (log10 uM): 2)
stdout: 4.17%

stdin: Answer with the recorded max % larvae for the compound listed here: O=S(=O)(O)C(F)(F)C(F)(F)OC(F)(F)C(F)(F)F [Perfluoro-2-ethoxyethanesulfonic acid] (max tested concentration (log10 uM): 2)
stdout: 0%

stdin: Answer with the recorded max % larvae for the compound listed here: O=C(O)C(F)(F)C(F)(F)C(F)(F)C(F)(F)C(F)(F)C(F)(F)C(F)(F)F [Sodium perfluorooctanoate] (max tested concentration (log10 uM): 2)
stdout: 0%

stdin: Answer with the recorded max % larvae for the compound listed here: FC(F)(Br)C(F)(F)C(F)(F)C(F)(F)C(F)(F)C(F)(F)Br [1,6-Dibromododecafluorohexane] (max tested concentration (log10 uM): 2)
stdout: 0%

stdin: Answer with the recorded max % larvae for the compound listed here: CCN(CCO)S(=O)(=O)C(F)(F)C(F)(F)C(F)(F)C(F)(F)C(F)(F)C(F)(F)C(F)(F)C(F)(F)F [N-Ethyl-N-(2-hydroxyethyl)perfluorooctane sulfonamide] (max tested concentration (log10 uM): 2)
stdout: 0%

---

# Test system: Danio rerio embryo/larva
# METHOD NOTES: max % larvae generally abnormal across tested concentrations; higher = more toxic; extreme values may be limits of the assay
# DETAILS: exposure: 6-8 hpf to 5 dpf, scored at 6 dpf
Answer each item with its documented max % larvae generally abnormal across tested concentrations.
Your answer is read as %, so omit the unit and give the number.

stdin: Answer with the recorded max % larvae generally abnormal across tested concentrations for the compound listed here: O=C(O)C(F)(F)OC(F)(F)C(F)(F)OC(F)(F)C(F)(F)OC(F)(F)F [Perfluoro-3,6,9-trioxadecanoic acid] (max tested concentration (log10 uM): 2)
stdout: 70

stdin: Answer with the recorded max % larvae generally abnormal across tested concentrations for the compound listed here: O=C(O)C(F)(F)C(F)(F)C(F)(F)C(F)(F)C(F)(F)C(F)(F)C(F)(F)F [Sodium perfluorooctanoate] (max tested concentration (log10 uM): 2)
stdout: 0

stdin: Answer with the recorded max % larvae generally abnormal across tested concentrations for the compound listed here: OCCC(F)(F)C(F)(F)C(F)(F)C(F)(F)C(F)(F)C(F)(F)F [2-(Perfluorohexyl)ethanol] (max tested concentration (log10 uM): 2)
stdout: 79.5

stdin: Answer with the recorded max % larvae generally abnormal across tested concentrations for the compound listed here: FC(F)(F)C(F)(F)C(F)(F)CI [Heptafluorobutyl iodide] (max tested concentration (log10 uM): 2)
stdout: 0

stdin: Answer with the recorded max % larvae generally abnormal across tested concentrations for the compound listed here: O=S(=O)(O)C(F)(F)C(F)(F)C(F)(F)C(F)(F)F [Perfluorobutanesulfonic acid] (max tested concentration (log10 uM): 2)
stdout: 0

stdin: Answer with the recorded max % larvae generally abnormal across tested concentrations for the compound listed here: FC(F)(I)C(F)(F)C(F)(F)C(F)(F)I [Perfluoro-1,4-diiodobutane] (max tested concentration (log10 uM): 2)
stdout: 58.3

---

Answer each item with its documented max % larvae.
# Tested on: Danio rerio embryo/larva
# METHOD NOTES: max % larvae with abnormal position across tested concentrations; higher = more toxic; extreme values may be limits of the assay
# DETAILS: exposure: 6-8 hpf to 5 dpf, scored at 6 dpf
Your answer is read as %, so omit the unit and give the number.

stdin: Answer with the recorded max % larvae for the molecule listed here: COC(=O)C(F)(F)C(F)(F)C(F)(F)C(F)(F)C(F)(F)F [Methyl perfluorohexanoate] (max tested concentration (log10 uM): 2)
stdout: 0

stdin: Answer with the recorded max % larvae for the molecule listed here: O=C(O)CCC(F)(F)C(F)(F)C(F)(F)F [3:3 Fluorotelomer carboxylic acid] (max tested concentration (log10 uM): 2)
stdout: 7.5

stdin: Answer with the recorded max % larvae for the molecule listed here: OCC(F)(F)C(F)(F)C(F)(F)F [3:1 Fluorotelomer alcohol] (max tested concentration (log10 uM): 2)
stdout: 0

stdin: Answer with the recorded max % larvae for the molecule listed here: CO[Si](C)(CCC(F)(F)C(F)(F)C(F)(F)C(F)(F)C(F)(F)C(F)(F)F)OC [Dimethoxymethyl((perfluorohexyl)ethyl)silane] (max tested concentration (log10 uM): 1.60206)
stdout: 0

stdin: Answer with the recorded max % larvae for the molecule listed here: O=P(O)(O)OCCC(F)(F)C(F)(F)C(F)(F)C(F)(F)C(F)(F)C(F)(F)F [6:2 Fluorotelomer phosphate monoester] (max tested concentration (log10 uM): 2)
stdout: 0
